Data origin: PubChem BioAssay (NCI)

Test system: UACC-62 melanoma
experimentalProtocol: NCI tumour cell line growth inhibition, 48 h
// reported TGI for each item listed

C=C1C(=O)O[C@H]2[C@H]1CC/C(COC(=O)NCc1cc(OC)cc(OC)c1)=C\CC[C@@]1(C)O[C@@H]21 = 2.56 µM
COc1cccc(Nc2nc(N)nc(N)c2N=O)c1 = 38.8 µM
O=[N+]([O-])c1cc2c(c([N+](=O)[O-])c1)Nc1ccccc1O2 = > 100 µM
Fc1cccc(-c2[nH]nc3nc(Nc4cccnc4)sc23)c1 = > 100 µM
CCOC(=O)c1cc(C#N)[nH]c1-c1ccsc1 = > 100 µM
O=S(O)c1cc(Cl)cc(Cl)c1OCc1ccccc1 = > 100 µM

*Q* Request the reported TGI associated with CN(C)Cc1cc(/C=C/C(=O)c2ccc(Cl)c(Cl)c2)cc(CN(C)C)c1O
*A* 27.4 µM

*Q* Request the reported TGI associated with Cn1c(=O)c2c(nc(NCCNc3nc4c(c(=O)n(C)c(=O)n4C)n3C)n2C)n(C)c1=O
*A* > 100 µM

*Q* Request the reported TGI associated with Cc1cn(C2CC(NC(=NCC3OC(n4cnc5c(N)ncnc54)CC3O)NC#N)C(CO)O2)c(=O)[nH]c1=O (stereo not given)
*A* > 100 µM

*Q* Request the reported TGI associated with CC1=CC(=O)/C(=C/n2c(=S)[nH]c3ccc([N+](=O)[O-])cc32)C(=O)O1
*A* > 100 µM

* * *

System: K-562 leukemia
experimentalProtocol: NCI tumour cell line growth inhibition, 48 h
measureName: TGI

Answered cases to consult:
Cn1nc2ccccc2cc1=O = > 100 µM
Cc1c(CC/C(=N\Nc2ccc([N+](=O)[O-])cc2[N+](=O)[O-])c2ccccc2)c2ccccc2n1C = > 31.6 µM
Cn1sc2ccccc2c1=S = 26.1 µM

*Q* Request the reported TGI associated with C#CCCOC(=O)c1ccccc1OC(C)=O
*A* > 100 µM

*Q* Request the reported TGI associated with CCCCCC/C=C1\CCC(CN(C)C)C1=O (stereo unspecified)
*A* 7.64 µM

*Q* Request the reported TGI associated with CC(C)c1cccc(C(C)C)c1NC(=O)CCC(=O)NN
*A* > 100 µM

* * *

Tested on: A498 renal
experimentalProtocol: NCI tumour cell line growth inhibition, 48 h
measureName: TGI (µM)
# value in µM; strip the unit string

COc1cc2c3c(n(CCCN4CCCC(O)C4)c(=O)c2cc1OC)-c1cc2c(cc1C3=O)OCO2 (stereo not given) = 25.1
CCCCCCCCCCCCCCCCCC[N+](C)(C)Cc1ccc(C[N+](C)(C)CCCCCCCCCCCCCCCCCC)cc1 = 91.7

Okay, now this compound:
*Q* Request the reported TGI associated with Fc1ccc2c3c([nH]c2c1)CCNC3
*A* 65.9

* * *

System: SF-295 CNS
experimentalProtocol: NCI tumour cell line growth inhibition, 48 h
Decide by TGI: equal to or exceeding 20 µM means condition met, less means condition not met.

*Q* Assess whether reported TGI for CC(C)(C)c1cc(-c2nc3c(F)c(F)c(F)c(F)c3[nH]2)cc(C(C)(C)C)c1O sits at 20 µM or higher.
*A* condition met

*Q* Assess whether reported TGI for COc1ccc(C2C(C=O)C(N3CCN(C)CC3)=Nc3nc4ccccc4n32)cc1 (centres undefined) sits at 20 µM or higher.
*A* condition met

*Q* Assess whether reported TGI for C[CH2][Sn]([CH2]C)([O]C(=O)c1ccc(F)cc1)[O][Sn]([CH2]C)([CH2]C)[O]C(=O)c1ccc(F)cc1 sits at 20 µM or higher.
*A* condition met

*Q* Assess whether reported TGI for CC(C)c1cccc(C(C)C)c1NC(=O)CCC(=O)NN sits at 20 µM or higher.
*A* condition met

*Q* Assess whether reported TGI for Nc1c2ccccc2nc2ccccc12 (tested in a mixture with another compound) sits at 20 µM or higher.
*A* condition not met
